pKi: −log10 of the molar value.
Study the reported pKi values for Mcl-1 (Homo sapiens, UniProt Q07820) given below; they originate from different publications.

# Compound Structure, Measurement Qualifier, pKi
data = [
    ("O=C(c1ccc(CN(Cc2ccc(F)cc2)S(=O)(=O)c2cc(Cl)cc(Cl)c2O)cc1)N(Cc1ccc(F)cc1)Cc1cc(Cl)cc(Cl)c1", "=", 7.40),
    ("Cc1c2c(nn1C)CSCc1cc(n(C)n1)CSc1cc(c3ccccc3c1)OCCCn1c(C(=O)O)cc3c-2c(Cl)ccc31", "=", 8.62),
    ("CC1(C)CCC(CN2CCN(c3ccc(C(=O)NS(=O)(=O)c4cnc(OC[C@H]5CC[C@H](O)CC5)c(Cl)c4)c(Oc4cccc5[nH]ncc45)c3)CC2)=C(c2ccc(Cl)cc2)C1", "<", 6.65),
]
